# target.or.system: HCV NS3/4A protease genotype 3a (Hepatitis C virus genotype 3a, UniProt Q81495)
# Sequence (Q81495 1033-1663): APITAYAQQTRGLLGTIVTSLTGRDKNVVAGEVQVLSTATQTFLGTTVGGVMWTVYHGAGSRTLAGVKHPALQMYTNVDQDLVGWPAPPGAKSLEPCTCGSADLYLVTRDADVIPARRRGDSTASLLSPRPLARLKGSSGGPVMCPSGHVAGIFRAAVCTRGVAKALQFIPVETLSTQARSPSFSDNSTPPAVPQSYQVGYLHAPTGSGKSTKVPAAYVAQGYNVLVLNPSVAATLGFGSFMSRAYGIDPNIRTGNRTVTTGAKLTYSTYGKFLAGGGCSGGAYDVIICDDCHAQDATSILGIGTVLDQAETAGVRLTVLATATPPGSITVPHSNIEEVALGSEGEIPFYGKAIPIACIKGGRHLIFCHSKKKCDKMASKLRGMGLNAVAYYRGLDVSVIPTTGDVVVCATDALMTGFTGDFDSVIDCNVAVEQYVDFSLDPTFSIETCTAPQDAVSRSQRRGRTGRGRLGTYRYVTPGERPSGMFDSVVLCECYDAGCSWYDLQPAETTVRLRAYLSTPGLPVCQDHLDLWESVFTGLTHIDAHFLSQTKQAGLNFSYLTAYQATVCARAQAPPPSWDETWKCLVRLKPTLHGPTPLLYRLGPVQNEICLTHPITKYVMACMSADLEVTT
# Sequence (Q81495 1664-1717): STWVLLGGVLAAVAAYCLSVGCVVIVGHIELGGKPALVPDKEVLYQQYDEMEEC
# assay.details: HCV NS3/4A protease time-resolved fluorescence (TRF) assay, Ki against genotype 3a
The label is y for IC50 below 0.5 nM and n for IC50 equal to or exceeding 0.5 nM.

- smiles.representation: "COc1cc(Cl)c2nc(C(F)(F)F)c3c(c2c1)CC[C@]1(C[C@H]2C(=O)N[C@]4(C(=O)NS(=O)(=O)C5(C)CC5)C[C@H]4/C=C\\CCCCC[C@H](NC(=O)OCC(C)C)C(=O)N2C1)O3"
  target.or.system: "HCV NS3/4A protease genotype 3a (Hepatitis C virus genotype 3a, UniProt Q81495)"
  qualitative.label: "n"
- smiles.representation: "COc1ccc2nc(C)c3c(c2n1)CC[C@]1(C[C@H]2C(=O)N[C@]4(C(=O)NS(=O)(=O)C5(C)CC5)C[C@H]4/C=C\\CCCCC[C@H](NC(=O)OCC(C)(C)C)C(=O)N2C1)O3"
  target.or.system: "HCV NS3/4A protease genotype 3a (Hepatitis C virus genotype 3a, UniProt Q81495)"
  qualitative.label: "y"
- smiles.representation: "COc1ccc2nc(C)c3c(c2c1)[C@H](F)C[C@]1(C[C@H]2C(=O)N[C@]4(C(=O)NS(=O)(=O)C5(C)CC5)C[C@H]4/C=C\\CCCCC[C@H](NC(=O)OCC(C)(C)F)C(=O)N2C1)O3"
  target.or.system: "HCV NS3/4A protease genotype 3a (Hepatitis C virus genotype 3a, UniProt Q81495)"
  qualitative.label: "y"
- smiles.representation: "CCc1nc2ccc(OC)cc2c2c1O[C@]1(CC2)C[C@H]2C(=O)N[C@]3(C(=O)NS(=O)(=O)C4(C)CC4)C[C@H]3/C=C\\CCCCC[C@H](NC(=O)O[C@H](C)C3CC3)C(=O)N2C1"
  target.or.system: "HCV NS3/4A protease genotype 3a (Hepatitis C virus genotype 3a, UniProt Q81495)"
  qualitative.label: "y"
- smiles.representation: "CC[C@@H](C)OC(=O)N[C@H]1CCCCC/C=C\\[C@@H]2C[C@@]2(C(=O)NS(=O)(=O)C2(C)CC2)NC(=O)[C@@H]2C[C@]3(CCc4c(c(C(F)(F)F)nc5ccc(OC)cc45)O3)CN2C1=O"
  target.or.system: "HCV NS3/4A protease genotype 3a (Hepatitis C virus genotype 3a, UniProt Q81495)"
  qualitative.label: "n"
